Tested on: A498 renal
Experiment: NCI-60 one-dose screen, 48 h (100 = growth as untreated, 0 = no growth, -100 = all killed)
Details: 10 µM unless noted
Protocol: Growth inhibition of the A498 human tumor cell line is measured as a screen for anti-cancer activity. Cells are grown in 96 well plates and exposed to the test compound for 48 hours. Compounds are tested at a single concentration, which is 10^-5 M for most compounds. The reported endpoint is percent growth (GI% or GIPRCNT), where numbers from 0 - 100% represent growth inhibition, and numbers from -100% - 0 represent cell death. For example, a value of 40 represents 60% growth inhibition. […]
The panel holds about 83,000 compounds, 20% with a hit somewhere; the sample as a whole holds those more often.
Would you kindly list growth for each of these compounds?
One number for each entry, in %.

// known answers, use as guide
compound	growth / %
COc1ccccc1/C=C/c1cccc(NC(=S)NCCCCN(C)C)c1	-65.9
Cn1cc(-c2cc(N)n3nc(-c4c[nH]c5ccccc45)cc3n2)c2ccccc21	-90.4
C/C(=N\Nc1ccc(C(=O)O)cc1)c1cnn(-c2cc(=O)[nH]c3ccc(C)cc23)c1C	108
C/C(=N\Nc1ccc(S(N)(=O)=O)cc1)c1cnn(-c2cc(=O)[nH]c3ccc(Br)cc23)c1C	115
Cc1cc(N=C(N)c2ccccc2)ccc1OCCCCCCCCn1ccnc1	64.6
O=C(NNC(=O)c1ccc(OCc2nc3ccc(Cl)cc3[nH]2)cc1)Nc1ccc(Cl)c(Cl)c1	182

Provide the reported growth of each entry below, same order.
1. Cc1ccc(C2CC(c3ccc(NC(=S)Nc4ccccc4)cc3)=NN2c2ccc(S(N)(=O)=O)cc2)cc1 (centres undefined)
2. CCc1ccccc1-c1nc(CN[C@@H]2C[C@@H]3C[C@H]([C@H]2C)C3(C)C)c(C)o1
3. ClC(Cn1ncc2c(Nc3cccc(Br)c3)nc(SCCN3CCOCC3)nc21)c1ccc(Br)cc1 (centres undefined)
4. Cn1cc(-c2cc(N)n3nc(-c4c[nH]c5ccccc45)cc3n2)c2cc(Br)ccc21

1. 76.4
2. -90.9
3. 31.7
4. -92.5

// for each compound below, give its growth
1. O=C(/C=C1\C(=O)N(Cc2ccccc2)c2ccccc21)c1cc2ccccc2oc1=O
2. Nc1nn2c(-c3cc4ccccc4oc3=O)ccnc2c1N=Nc1ccccc1
3. CS(=O)(=O)c1ccc(-n2nc(C(=O)NCc3ccccc3)cc2-c2ccc(Cl)cc2)cc1
4. Cc1nc2sccn2c1-c1nnc(SCc2ccccc2)o1
5. O=C(CSc1nc2c(c(=O)[nH]1)CCCC2)Nc1ccccc1C(=O)O
6. O=C1CCC(N2C(=O)c3cccc(NCCCCCC(=O)N4CCN(c5ccc6nc7c(nc6c5C(F)(F)F)C(=O)c5ncccc5C7=O)CC4)c3C2=O)C(=O)N1 (centres undefined)
7. COc1cc(/C=C/C(=O)c2cnn(-c3cc(=O)[nH]c4ccc(Br)cc34)c2C)cc(OC)c1OC
8. O=C(Nc1ccc(F)cc1)Nc1nc2ccc([N+](=O)[O-])cc2s1

144
111
124
87.8
173
-80.7
6.24
-15

Can you share its growth? I mean this compound: O=C(c1cc2cc(OCCCN3CCC3)ccc2[nH]1)N1C[C@@H](CCl)c2c1cc(OCc1ccccc1)c1ccccc21
-25.3

====

Tested on: MDA-MB-231 breast
Assay: NCI-60 one-dose screen, 48 h (100 = growth as untreated, 0 = no growth, -100 = all killed)
Settings: 10 µM unless noted
The panel holds about 83,000 compounds, 20% with a hit somewhere; the sample as a whole holds those more often.
Classification field: enter condition met for growth values not below 10%, condition not met for values below it.

compound	label_class
COc1ccc2c(c1)C(Sc1ccc(Cl)cc1)c1c(nc(N)c(C#N)c1N)O2 (centres undefined)	condition met
C=CCSc1nnc(-c2ccc(-c3nc4ccccc4[nH]3)cc2)o1	condition met
CCOc1ccc(-c2cc(-c3cc(C(C)C)c(O)cc3C)nn2-c2ccc(S(N)(=O)=O)cc2)cc1	condition met
CCN1C(=O)N(CC)C2NNC(Sc3c(C(=O)O)c4ccccc4n(CCC(C)C)c3=O)=NC21 (centres undefined)	condition met
O=C(NN1C(=O)/C(=C/C=C/c2ccc([N+](=O)[O-])o2)SC1=S)c1ccncc1	condition not met

For this compound, is measured growth 10% or higher? Cn1cc(-c2cc(N)n3nc(-c4c[nH]c5ccccc45)cc3n2)c2cc(F)ccc21
condition not met

Now give it for COc1ccc(NC(=O)Cn2c(/C=C/c3cccc(Br)c3)nc3ccccc3c2=O)cc1 too.
condition not met

Follow-up item: COc1cccc(-c2ccc(/C=N/NC(=O)c3[nH]c4ccc(Br)cc4c3-c3ccccc3)s2)c1
condition not met
